Tested on: KM12 colon
Assay: NCI tumour cell line growth inhibition, 48 h
Answer each item with its documented TGI.

Kindly give each listed record's TGI.
1. N#C/C(=C\c1c(-c2ccccc2)[nH]c2ccccc12)C(=O)c1ccccc1
2. CCn1c(=O)c2ccccc2n2c(=O)c3cc4ccccc4cc3nc12
3. COc1cccc(-c2nccc3c(OCc4ccccc4)c(OC)c(OC)cc23)c1
4. Cc1ccc(C2=C(c3ccc(C)cc3)C(c3ccc(C)cc3)=C(c3ccc(C)cc3)C2=O)cc1

1: 19.4 µM; 2: > 100 µM; 3: > 100 µM; 4: > 100 µM

For each entry beneath this line, provide reported TGI.
1. CC12ON(P(=O)(c3ccccc3)c3ccccc3)C(C)(c3ccccc31)c1ccccc12
2. O=C(N/C(=C\c1ccc(/C=C(\NC(=O)c2ccccc2)c2nc3ccccc3s2)cc1)c1nc2ccccc2s1)c1ccccc1
3. CS/C(c1ccccc1)=[N+](\[O-])Cc1ccccc1
4. O=[N+]([O-])c1ccc([N+]2=NC(c3ccccc3)=NN(c3ccccc3)C2)cc1
5. Cc1cc2oc(C)c(S(=O)(=O)NC(=O)Nc3ccc(Cl)cc3)c(=O)c2c(=O)o1

1: > 100 µM; 2: 22.6 µM; 3: > 100 µM; 4: > 100 µM; 5: > 100 µM
